Provenance of the data: paper PMC5431086

Reported pIC50 is given for each of the following binders.
MEASURED TARGET: recombinant human aminopeptidase N (hAPN) (human) (UniProt P15144)
PROCEDURE SUMMARY: enzyme inhibition assay (competition with the fluorogenic substrate H-Ala-AMC); 0.1 μM APN, 100 μM H-Ala-AMC, 100 mM Tris pH 7.2, Brij 35 0.0002% w/v, 37 °C, triplicate; inhibition competitive, Ki from the IC50 by the Cheng-Prusoff equation
pIC50: −log10 of the molar value.

Recorded results for 6 binders are shown here.
DARK
< 3.30
ADARK
< 3.30
LHSPW
4.97
PHSPW
4.08
AHLFN
< 3.30
FDWWG
< 3.30

Recorded pIC50 of EPKVA , please. < 3.30

Recorded pIC50 of LDSTF , please. < 3.30
